Values from paper PMC9246016

# Method Summary: Pharmacokinetics of ROS after 10-day multiple-dose GLT in rats
# Format: in vivo, Sprague-Dawley rats
# Condition Summary: male, Sprague-Dawley, rat, plasma, po, 10 mg/kg, ROS 10 mg/kg oral, multiple-dose GLT 100 mg/kg for 10 days
Parameter: Tmax (min)

- Compound: "CN(CCOc1ccc(CC2SC(=O)NC2=O)cc1)c1ccccn1 (stereo not shown)"
  Parameter: "Tmax"
  Recorded Number: 32.4

====

# Method Summary: Pharmacokinetics of ROS with single-dose GLT in rats
# Condition Summary: male, Sprague-Dawley, rat, plasma, po, 10 mg/kg, t1/2, ROS 10 mg/kg oral, single-dose GLT 100 mg/kg

- Compound: "CN(CCOc1ccc(CC2SC(=O)NC2=O)cc1)c1ccccn1 (stereo not shown)"
  half-life / h: 2.79

====

# Method Summary: Pharmacokinetics of ROS with single-dose GLT in rats
# Condition Summary: male, Sprague-Dawley, rat, plasma, po, 10 mg/kg, Cmax, ROS 10 mg/kg oral, control (vehicle), single dose

- Compound: "CN(CCOc1ccc(CC2SC(=O)NC2=O)cc1)c1ccccn1 (stereo not shown)"
  Cmax / ng/mL: 29100

====

# Method Summary: Pharmacokinetics of ROS with single-dose GLT in rats
# Condition Summary: male, Sprague-Dawley, rat, plasma, po, 10 mg/kg, t1/2, ROS 10 mg/kg oral, control (vehicle), single dose

- Molecule: "CN(CCOc1ccc(CC2SC(=O)NC2=O)cc1)c1ccccn1 (stereo not shown) [ROS, Rosiglitazone]"
  Uom: "h"
  half-life: 2.14

====

# Method Summary: Pharmacokinetics of ROS with single-dose GLT in rats
# Condition Summary: male, Sprague-Dawley, rat, plasma, po, 10 mg/kg, AUC0-t, ROS 10 mg/kg oral, control (vehicle), single dose
Parameter: AUC(0-t) (µg·h/mL)

- Compound: "CN(CCOc1ccc(CC2SC(=O)NC2=O)cc1)c1ccccn1 (stereo not shown)"
  Recorded Number: 117

====

# Method Summary: Pharmacokinetics of ROS with single-dose GLT in rats
# Condition Summary: male, Sprague-Dawley, rat, plasma, po, 10 mg/kg, Tmax, ROS 10 mg/kg oral, single-dose GLT 200 mg/kg

- Compound: "CN(CCOc1ccc(CC2SC(=O)NC2=O)cc1)c1ccccn1 (stereo not shown)"
  Tmax (min): 48

====

# Method Summary: Pharmacokinetics of ROS after 10-day multiple-dose GLT in rats
# Type: in vivo, Sprague-Dawley rats
# Condition Summary: male, Sprague-Dawley, rat, plasma, po, 10 mg/kg, ROS 10 mg/kg oral, multiple-dose GLT 200 mg/kg for 10 days
Parameter: Cmax (ng/mL)

- Compound: "CN(CCOc1ccc(CC2SC(=O)NC2=O)cc1)c1ccccn1 (stereo not shown)"
  Parameter: "Cmax"
  Recorded Number: 28400

====

# Method Summary: Pharmacokinetics of ROS with single-dose GLT in rats
# Condition Summary: male, Sprague-Dawley, rat, plasma, po, 10 mg/kg, AUC0-t, ROS 10 mg/kg oral, single-dose GLT 100 mg/kg
Parameter: AUC(0-t)

- Compound: "CN(CCOc1ccc(CC2SC(=O)NC2=O)cc1)c1ccccn1 (stereo not shown)"
  Parameter: "AUC(0-t)"
  Result: "130 µg·h/mL"

====

# Method Summary: Pharmacokinetics of ROS after 10-day multiple-dose GLT in rats
# Format: in vivo, Sprague-Dawley rats
# Condition Summary: male, Sprague-Dawley, rat, plasma, po, 10 mg/kg, ROS 10 mg/kg oral, multiple-dose GLT 200 mg/kg for 10 days
Parameter: half-life (h)

- Compound: "CN(CCOc1ccc(CC2SC(=O)NC2=O)cc1)c1ccccn1 (stereo not shown)"
  Recorded Number: 1.68
